The entries below are paired with their reported pEC50.
- study.target: human α7 nAChR stably expressed in a HEK cell line (with human RIC-3) (Homo sapiens)
- Construct: PrecisION hnAChR α7/RIC-3
- assay.text: Automated patch-clamp electrophysiology functional assay (Assay A), IonFlux HT, whole-cell population patch
- Format: cell-based
- condition.details: automated patch-clamp electrophysiology functional assay (Assay A); potency class by EC50; read-out: α7 nAChR Potency
pEC50: −log10 of the molar value.

Solved entries (count: 3):
{"columns": ["compound", "study.target", "pEC50"],
 "data": [
  ["CC1(C)[C@@H](c2ccc(S(N)(=O)=O)cc2)[C@@H]1c1nnc(-c2cccnc2C2CC2)o1", "human α7 nAChR stably expressed in a HEK cell line (with human RIC-3) (Homo sapiens)", "5.30 to 6.30"],
  ["CC1(C)[C@H](c2ccc(S(N)(=O)=O)cc2)[C@H]1c1nc(C2CC3(CCC3)C2)no1 (some centres unmarked)", "human α7 nAChR stably expressed in a HEK cell line (with human RIC-3) (Homo sapiens)", "5.30 to 6.30"],
  ["CC1(C)[C@@H](c2ccc(S(N)(=O)=O)cc2)[C@@H]1c1nnc(CC2CC2)o1", "human α7 nAChR stably expressed in a HEK cell line (with human RIC-3) (Homo sapiens)", "5.30 to 6.30"]
]}

In: I'd like to know its pEC50. The compound in question is `Cc1ncoc1-c1noc([C@@H]2C[C@H]2c2ccc(S(N)(=O)=O)cc2)n1`
Out: 5.30 to 6.30

In: Bench note: what pEC50 did CC1C(c2ccc(S(N)(=O)=O)cc2)C1c1nc(-c2ccccc2)no1 (single isomer, unassigned) [Example M2] show?
Out: 5.30 to 6.30

In: For the compound CC1(C)[C@@H](c2ccc(S(N)(=O)=O)cc2)[C@@H]1c1noc(CCC2CC2)n1 [Example 2] , what pEC50 is on record?
Out: 6.30 to 7.00

In: Entry `CC(F)(F)c1nc([C@H]2[C@H](c3ccc(S(N)(=O)=O)cc3)C2(C)C)no1` : reported pEC50 = ?
Out: 6.30 to 7.00

In: Look up pEC50: `CC1(C)[C@H](c2ccc(S(N)(=O)=O)cc2)[C@H]1c1noc(C2(C(F)(F)F)CC2)n1`
Out: 5.30 to 6.30

In: Recorded pEC50 for `CC1(C)[C@@H](c2ccc(S(N)(=O)=O)cc2)[C@@H]1c1nnc(-c2c(F)cccc2F)o1` , please?
Out: 5.30 to 6.30

In: Item under review: `COc1ccc(Cl)cc1-c1noc([C@H]2[C@H](c3ccc(S(N)(=O)=O)cc3)C2(C)C)n1` . Reported pEC50?
Out: 4.30 to 5.30

In: Can you share its pEC50? I mean this compound: `CC1(C)[C@H](c2ccc(S(N)(=O)=O)cc2)[C@H]1c1nc(C2CC2)c(C2CC2)o1`
Out: 5.30 to 6.30

----------
- study.target: human α7 nAChR stably expressed in a HEK cell line (with human RIC-3) (Homo sapiens, UniProt P36544)
- Construct: PrecisION hnAChR α7/RIC-3
- Sequence (P36544 23-502): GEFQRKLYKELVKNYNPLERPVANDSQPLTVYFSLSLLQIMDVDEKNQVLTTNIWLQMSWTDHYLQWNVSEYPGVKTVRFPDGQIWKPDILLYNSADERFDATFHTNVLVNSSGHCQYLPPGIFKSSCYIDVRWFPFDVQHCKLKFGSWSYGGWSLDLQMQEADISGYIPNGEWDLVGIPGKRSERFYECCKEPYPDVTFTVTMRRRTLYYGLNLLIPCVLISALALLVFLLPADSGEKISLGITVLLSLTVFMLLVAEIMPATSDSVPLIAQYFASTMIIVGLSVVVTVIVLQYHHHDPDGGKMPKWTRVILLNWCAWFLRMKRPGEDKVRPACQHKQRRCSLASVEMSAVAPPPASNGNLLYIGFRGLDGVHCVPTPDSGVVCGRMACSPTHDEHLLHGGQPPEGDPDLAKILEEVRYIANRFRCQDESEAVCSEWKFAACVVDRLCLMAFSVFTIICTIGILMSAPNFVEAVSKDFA
- assay.text: Automated patch-clamp electrophysiology functional assay (Assay A), IonFlux HT, whole-cell population patch
- Type: cell-based
- condition.details: automated patch-clamp electrophysiology functional assay (Assay A); potency class by EC50; read-out: α7 nAChR Potency
property.name: EC50

{"columns": ["compound", "EC50"],
 "data": [
  ["NS(=O)(=O)c1ccc([C@@H]2C[C@H]2c2nc(-c3cccc(F)c3)no2)cc1", "100 to 500 nM"],
  ["CC1(C)C(c2ccc(S(N)(=O)=O)cc2)C1c1cc(-c2cccc(F)c2)on1 (racemic)", "500 to 5000 nM"],
  ["CC1(C)[C@@H](c2ccc(S(N)(=O)=O)cc2)[C@@H]1c1nnc(-c2ccccc2)o1", "500 to 5000 nM"],
  ["CC1(C)[C@@H](c2ccc(S(N)(=O)=O)cc2)[C@@H]1c1nc(-c2ccccc2)no1", "100 to 500 nM"],
  ["NS(=O)(=O)c1ccc([C@@H]2C[C@H]2c2nsc(N3CCCCC3)n2)cc1", "100 to 500 nM"]
]}

In: Value lookup for EC50; key = `CC1(C)[C@H](c2ccc(S(N)(=O)=O)cc2)[C@H]1c1nc(-c2cccc(F)c2)no1`
Out: 500 to 5000 nM

In: Give the measured EC50 of `NS(=O)(=O)c1ccc([C@@H]2C[C@H]2c2nc(-c3cccc(F)c3)cs2)cc1` .
Out: 100 to 500 nM

In: Record request: EC50 value, item `CC1(C)[C@H](c2ccc(S(N)(=O)=O)cc2)[C@H]1c1nnc(-c2c(F)cccc2C(F)(F)F)o1`
Out: 500 to 5000 nM

----------
- study.target: human α7 nAChR stably expressed in a HEK cell line (with human RIC-3) (Homo sapiens, UniProt P36544)
- Construct: PrecisION hnAChR α7/RIC-3
- assay.text: Automated patch-clamp electrophysiology functional assay (Assay A), IonFlux HT, whole-cell population patch
- Assay type: cell-based
- condition.details: electrophysiology EC50, HEK cells expressing human α7/RIC-3, 40 μM acetylcholine, holding potential −60 mV, room temperature; read-out: α7 nAChR EC50
pEC50: −log10 of the molar value.
property.name: pEC50

Example cases with answers are listed next.
{"columns": ["compound", "pEC50"],
 "data": [
  ["CC1(C)[C@H](c2ccc(S(N)(=O)=O)cc2)[C@H]1c1nnc(-c2ccccc2)[nH]1", 6.00],
  ["CC1(C)[C@H](c2ccc(S(N)(=O)=O)cc2)[C@H]1c1nc(C2CCc3cc(F)ccc32)no1 (some centres unmarked)", 5.92],
  ["NS(=O)(=O)c1ccc([C@@H]2C[C@H]2c2nc(C3(c4ccccc4)CC3)no2)cc1", 5.68],
  ["CC(C)c1noc([C@H]2[C@H](c3ccc(S(N)(=O)=O)cc3)C2(F)F)n1 [Example D1]", 6.92],
  ["NS(=O)(=O)c1ccc([C@@H]2C[C@H]2c2noc(-c3cccc(F)c3)n2)cc1", 6.72],
  ["NS(=O)(=O)c1ccc([C@@H]2[C@@H](c3nc(C4CCC4)no3)C2(F)F)cc1", 5.92]
]}

(A) CC1(C)[C@@H](c2ccc(S(N)(=O)=O)cc2)[C@@H]1c1noc(-c2cnc(SCC(F)(F)F)o2)n1
(B) NS(=O)(=O)c1ccc([C@H]2[C@H](c3nc(-c4ccccc4)no3)C2(F)F)cc1
In: Please indicate which entry, A or B , has the lower recorded pEC50 value. Write down the label of the entry you select.
Out: A

----------
- study.target: human α7 nAChR stably expressed in a HEK cell line (with human RIC-3) (Homo sapiens, UniProt P36544)
- Construct: PrecisION hnAChR α7/RIC-3
- assay.text: Automated patch-clamp electrophysiology functional assay (Assay A), IonFlux HT, whole-cell population patch
- Type: cell-based
- condition.details: electrophysiology EC50, HEK cells expressing human α7/RIC-3, 40 μM acetylcholine, holding potential −60 mV, room temperature; read-out: α7 nAChR EC50
property.name: EC50 (µM)

{"columns": ["compound", "EC50 [µM]"],
 "data": [
  ["CC1(C)[C@@H](c2ccc(S(N)(=O)=O)cc2)[C@@H]1c1nnc(-c2cc(F)ccc2C(F)(F)F)o1", 1.1]
]}

(a) NS(=O)(=O)c1ccc([C@@H]2C[C@H]2c2nc(-c3ccccc3)co2)cc1
(b) CC1(C)[C@@H](c2ccc(S(N)(=O)=O)cc2)[C@@H]1c1nnc(-c2c(F)cccc2F)o1
(c) CC1(C)[C@H](c2ccc(S(N)(=O)=O)cc2)[C@H]1c1noc(-c2cccc(F)c2)n1
(d) CC(C)c1noc([C@@H]2[C@@H](c3ccc(S(N)(=O)=O)cc3)C2(F)F)n1
In: Task field, ranking: reported EC50, descending order. Note for the reader: the ranking is given by listing the labels in the order requested.
Out: b, d, a, c

----------
In this section, each of the compounds is paired with its reported pEC50.
- study.target: human α7 nAChR stably expressed in a HEK cell line (with human RIC-3) (Homo sapiens)
- Construct: PrecisION hnAChR α7/RIC-3
- assay.text: Automated patch-clamp electrophysiology functional assay (Assay A), IonFlux HT, whole-cell population patch
- Assay type: cell-based
- condition.details: automated patch-clamp electrophysiology functional assay (Assay A); potency class by EC50; read-out: α7 nAChR Potency
pEC50: −log10 of the molar value.

{"columns": ["compound", "pEC50"],
 "data": [
  ["NS(=O)(=O)c1ccc([C@@H]2C[C@H]2c2nc(C3CCCC3)no2)cc1", "6.30 to 7.00"],
  ["CC1C(c2ccc(S(N)(=O)=O)cc2)C1c1nc(-c2ccccc2)no1 (single isomer, unassigned; diastereomer 4) [Example 22]", "6.30 to 7.00"],
  ["CCc1coc([C@H]2[C@H](c3ccc(S(N)(=O)=O)cc3)C2(C)C)n1", "5.30 to 6.30"],
  ["CC1(C)[C@@H](c2ccc(S(N)(=O)=O)cc2)[C@@H]1c1nc(-c2ccccc2F)co1", "6.30 to 7.00"]
]}

In: Recall the recorded pEC50 for `CC1(C)[C@H](c2ccc(S(N)(=O)=O)cc2)[C@H]1c1nc(-c2ccc(F)cc2F)co1` with human α7 nAChR stably expressed in a HEK cell line (with human RIC-3) (Homo sapiens) and state it.
Out: 5.30 to 6.30

In: # returns recorded pEC50 (system: human α7 nAChR stably expressed in a HEK cell line (with human RIC-3) (Homo sapiens)) for `CC(C)Oc1ccc(Cl)cc1-c1noc([C@@H]2[C@@H](c3ccc(S(N)(=O)=O)cc3)C2(C)C)n1`
Out: 5.30 to 6.30

In: Lab note: need pEC50 for NS(=O)(=O)c1ccc([C@@H]2C[C@H]2c2nc(-c3cnccc3C(F)(F)F)no2)cc1 [Example D22] on human α7 nAChR stably expressed in a HEK cell line (with human RIC-3) (Homo sapiens), anyone have it?
Out: 5.30 to 6.30

In: Any idea what pEC50 came out for CC1(C)[C@@H](c2ccc(S(N)(=O)=O)cc2)[C@@H]1c1nc(C2CCCCC2O)no1 (stereo partly shown) on human α7 nAChR stably expressed in a HEK cell line (with human RIC-3) (Homo sapiens)?
Out: 5.30 to 6.30

In: Form field: pEC50 recorded for `CC1(C)[C@@H](c2ccc(S(N)(=O)=O)cc2)[C@@H]1c1noc(-c2cccc(F)c2)n1` with human α7 nAChR stably expressed in a HEK cell line (with human RIC-3) (Homo sapiens) (enter value)
Out: 5.30 to 6.30

In: What pEC50 appears in the records for this compound with human α7 nAChR stably expressed in a HEK cell line (with human RIC-3) (Homo sapiens)? `CC(C)c1noc([C@@H]2C[C@H]2c2ccc(S(N)(=O)=O)cc2)n1`
Out: 6.30 to 7.00

In: // lookup pEC50 | system=human α7 nAChR stably expressed in a HEK cell line (with human RIC-3) (Homo sapiens) | key= `CC1(C)[C@@H](c2ccc(S(N)(=O)=O)cc2)[C@@H]1c1noc(-c2ccccc2)n1`
Out: 6.30 to 7.00

In: Request: pEC50, test system human α7 nAChR stably expressed in a HEK cell line (with human RIC-3) (Homo sapiens), entry CC1(C)C(c2nc(-c3ccccc3)no2)C1c1ccc(S(N)(=O)=O)cc1F (single isomer, unassigned)
Out: 5.30 to 6.30

In: Hi! What's the reported pEC50 for `NS(=O)(=O)c1ccc([C@@H]2C[C@H]2c2nc(-c3ccccc3)co2)cc1` on human α7 nAChR stably expressed in a HEK cell line (with human RIC-3) (Homo sapiens)?
Out: 6.30 to 7.00

In: Entry `CC1(C)[C@@H](c2ccc(S(N)(=O)=O)cc2)[C@@H]1c1nnc(C2CC2)s1` , system human α7 nAChR stably expressed in a HEK cell line (with human RIC-3) (Homo sapiens): what pEC50 was measured?
Out: 5.30 to 6.30

In: Find the measured pEC50: item `CC1(C)[C@H](c2ccc(S(N)(=O)=O)cc2)[C@H]1c1cc(-c2ccccc2)no1` , target or system human α7 nAChR stably expressed in a HEK cell line (with human RIC-3) (Homo sapiens).
Out: 6.30 to 7.00

In: Could you share what pEC50 was measured for `CC1(C)[C@H](c2ccc(S(N)(=O)=O)cc2)[C@H]1c1nnc(-c2cc(F)ccc2C(F)(F)F)o1` , tested on human α7 nAChR stably expressed in a HEK cell line (with human RIC-3) (Homo sapiens)?
Out: 5.30 to 6.30

In: Entry `CC1(C)[C@H](c2ccc(S(N)(=O)=O)cc2)[C@H]1c1noc(N2CCCCC2)n1` , system human α7 nAChR stably expressed in a HEK cell line (with human RIC-3) (Homo sapiens): what pEC50 was measured?
Out: 5.30 to 6.30

In: Test system human α7 nAChR stably expressed in a HEK cell line (with human RIC-3) (Homo sapiens); read-out pEC50; what value for CC1(C)C(c2ccc(OS(N)(=O)=O)cc2)C1c1nc(-c2ccccc2)no1 (stereo not shown) ?
Out: 5.30 to 6.30
